assay: Aqueous solubility in four aqueous buffers with distinct pH values; assay type: physicochemical; settings: thermodynamic from solid; FaSSiF (SIF-powder); 15 min
Measured endpoint: solubility at 15 min (µg/mL)

{"columns": ["Compound", "Measured endpoint", "Recorded value"],
 "data": [
  ["FC(F)(F)Oc1ccc(Nc2ccc3cccc(Cl)c3n2)cc1.O=S(=O)(O)O [H2SO4]", "solubility at 15 min", 109]
]}

====

experiment: Hygroscopicity by Dynamic Vapor Sorption Analysis (DVS); type: physicochemical; settings: RH → 95%
Decide using Relative weight change (dm) alone. Strictly below 2%: y. Equal to or above 2%: n.

{"columns": ["Compound", "Discrete label"],
 "data": [
  ["Cc1ccc(S(=O)(=O)O)cc1.FC(F)(F)Oc1ccc(Nc2ccc3cccc(Cl)c3n2)cc1 [tosylate]", "y"],
  ["FC(F)(F)Oc1ccc(Nc2ccc3cccc(Cl)c3n2)cc1 [free base]", "y"],
  ["Cl.FC(F)(F)Oc1ccc(Nc2ccc3cccc(Cl)c3n2)cc1 [HCl]", "n"],
  ["FC(F)(F)Oc1ccc(Nc2ccc3cccc(Cl)c3n2)cc1.O=S(=O)(O)O", "n"],
  ["FC(F)(F)Oc1ccc(Nc2ccc3cccc(Cl)c3n2)cc1.O=S(=O)(O)c1ccccc1 [besylate]", "y"]
]}

====

Test: Aqueous solubility in four aqueous buffers with distinct pH values
Format: physicochemical
Conditions: aqueous buffer, fassif, thermodynamic from solid, FaSSiF (SIF-powder); 15 min
Protocol: The solubility properties of the generated solid states were studied in four different aqueous buffers with distinct pH values. Approximately 250 mg of each sample was mixed with 2.5 ml solvent and stirred.

{"columns": ["Molecule", "solubility at 15 min / µg/mL"],
 "data": [
  ["FC(F)(F)Oc1ccc(Nc2ccc3cccc(Cl)c3n2)cc1.O=S(=O)(O)c1ccccc1 [besylate]", 77],
  ["Cl.FC(F)(F)Oc1ccc(Nc2ccc3cccc(Cl)c3n2)cc1 [HCl]", 111],
  ["Cc1ccc(S(=O)(=O)O)cc1.FC(F)(F)Oc1ccc(Nc2ccc3cccc(Cl)c3n2)cc1 [tosylate]", 30],
  ["FC(F)(F)Oc1ccc(Nc2ccc3cccc(Cl)c3n2)cc1 [free base]", 64]
]}

====

experiment: Hygroscopicity by Dynamic Vapor Sorption Analysis (DVS); assay type: physicochemical; details: RH → 0% (second step to 0)
As shown below, each of these compounds has a reported Relative weight change (dm) value.

{"columns": ["Compound", "Relative weight change (dm) / %"],
 "data": [
  ["FC(F)(F)Oc1ccc(Nc2ccc3cccc(Cl)c3n2)cc1 [free base]", 0.02],
  ["Cl.FC(F)(F)Oc1ccc(Nc2ccc3cccc(Cl)c3n2)cc1 [HCl]", 2.8],
  ["Cc1ccc(S(=O)(=O)O)cc1.FC(F)(F)Oc1ccc(Nc2ccc3cccc(Cl)c3n2)cc1 [tosylate]", "−0.09"],
  ["FC(F)(F)Oc1ccc(Nc2ccc3cccc(Cl)c3n2)cc1.O=S(=O)(O)O", "−0.14"],
  ["FC(F)(F)Oc1ccc(Nc2ccc3cccc(Cl)c3n2)cc1.O=S(=O)(O)c1ccccc1 [besylate]", "−0.09"]
]}

====

experiment: Aqueous solubility in four aqueous buffers with distinct pH values; assay type: physicochemical; conditions: aqueous buffer, fassif, thermodynamic from solid, FaSSiF (SIF-powder); 1 h

{"columns": ["Molecule", "solubility at 1 h (µg/mL)"],
 "data": [
  ["FC(F)(F)Oc1ccc(Nc2ccc3cccc(Cl)c3n2)cc1.O=S(=O)(O)c1ccccc1 [besylate]", 45],
  ["Cl.FC(F)(F)Oc1ccc(Nc2ccc3cccc(Cl)c3n2)cc1 [HCl]", 198],
  ["Cc1ccc(S(=O)(=O)O)cc1.FC(F)(F)Oc1ccc(Nc2ccc3cccc(Cl)c3n2)cc1 [tosylate]", 13],
  ["FC(F)(F)Oc1ccc(Nc2ccc3cccc(Cl)c3n2)cc1 [free base]", 61]
]}

====

As shown below, each of these molecules has a reported solubility at 15 min value.
assay: Aqueous solubility in four aqueous buffers with distinct pH values; assay type: physicochemical; details: aqueous buffer, pH 2.2, simulated gastric fluid, thermodynamic from solid, 0.01N HCl pH ~2.2; 15 min

{"columns": ["Molecule", "Output unit", "solubility at 15 min"],
 "data": [
  ["FC(F)(F)Oc1ccc(Nc2ccc3cccc(Cl)c3n2)cc1.O=S(=O)(O)c1ccccc1 [besylate]", "µg/mL", 23],
  ["Cc1ccc(S(=O)(=O)O)cc1.FC(F)(F)Oc1ccc(Nc2ccc3cccc(Cl)c3n2)cc1 [tosylate]", "µg/mL", 6],
  ["Cl.FC(F)(F)Oc1ccc(Nc2ccc3cccc(Cl)c3n2)cc1 [HCl]", "µg/mL", 116]
]}

====

As shown below, each of these compounds has a reported Relative weight change (dm) value.
assay: Hygroscopicity by Dynamic Vapor Sorption Analysis (DVS); assay type: physicochemical; settings: RH → 35% (final step)

{"columns": ["Compound", "Relative weight change (dm) / %"],
 "data": [
  ["Cc1ccc(S(=O)(=O)O)cc1.FC(F)(F)Oc1ccc(Nc2ccc3cccc(Cl)c3n2)cc1 [tosylate]", "−0.05"],
  ["FC(F)(F)Oc1ccc(Nc2ccc3cccc(Cl)c3n2)cc1 [free base]", 0.02],
  ["Cl.FC(F)(F)Oc1ccc(Nc2ccc3cccc(Cl)c3n2)cc1 [HCl]", 5.1],
  ["FC(F)(F)Oc1ccc(Nc2ccc3cccc(Cl)c3n2)cc1.O=S(=O)(O)O", "−0.04"],
  ["FC(F)(F)Oc1ccc(Nc2ccc3cccc(Cl)c3n2)cc1.O=S(=O)(O)c1ccccc1 [besylate]", 1.0]
]}

====

experiment: Aqueous solubility in four aqueous buffers with distinct pH values; format: physicochemical; conditions: simulated gastric fluid, thermodynamic from solid; 0.01N HCl pH ~2.2; 1 h

{"columns": ["Compound", "Output unit", "solubility at 1 h"],
 "data": [
  ["FC(F)(F)Oc1ccc(Nc2ccc3cccc(Cl)c3n2)cc1.O=S(=O)(O)O [H2SO4]", "µg/mL", 152]
]}

====

assay: Hygroscopicity by Dynamic Vapor Sorption Analysis (DVS); assay type: physicochemical; conditions: DVS
Measured endpoint: Reversibility of water uptake / weight increase

{"columns": ["Compound", "Recorded value"],
 "data": [
  ["FC(F)(F)Oc1ccc(Nc2ccc3cccc(Cl)c3n2)cc1 [hemi-edisylate]", "irreversible"],
  ["FC(F)(F)Oc1ccc(Nc2ccc3cccc(Cl)c3n2)cc1.O=S(=O)(O)c1ccccc1 [besylate]", "reversible"],
  ["Cl.FC(F)(F)Oc1ccc(Nc2ccc3cccc(Cl)c3n2)cc1 [HCl]", "irreversible"],
  ["FC(F)(F)Oc1ccc(Nc2ccc3cccc(Cl)c3n2)cc1.O=S(=O)(O)O [H2SO4]", "reversible"]
]}

====

experiment: Aqueous solubility in four aqueous buffers with distinct pH values; assay type: physicochemical; details: aqueous buffer, thermodynamic from solid; 20 mM Na-acetate pH 4.5; 1 h

{"columns": ["Molecule", "solubility at 1 h (µg/mL)"],
 "data": [
  ["FC(F)(F)Oc1ccc(Nc2ccc3cccc(Cl)c3n2)cc1.O=S(=O)(O)O [H2SO4]", 139]
]}

====

test: Aqueous solubility in four aqueous buffers with distinct pH values; format: physicochemical; conditions: aqueous buffer, thermodynamic from solid; 50 mM KH2PO4 pH 6.8; 1 h

{"columns": ["Smiles str", "solubility at 1 h, µg/mL"],
 "data": [
  ["FC(F)(F)Oc1ccc(Nc2ccc3cccc(Cl)c3n2)cc1.O=S(=O)(O)O", 114]
]}

====

experiment: Aqueous solubility in four aqueous buffers with distinct pH values; type: physicochemical; conditions: simulated gastric fluid, thermodynamic from solid; 0.01N HCl pH ~2.2; 15 min

{"columns": ["Compound", "solubility at 15 min [µg/mL]"],
 "data": [
  ["FC(F)(F)Oc1ccc(Nc2ccc3cccc(Cl)c3n2)cc1.O=S(=O)(O)O [H2SO4]", 89]
]}

====

test: Aqueous solubility in four aqueous buffers with distinct pH values; assay type: physicochemical; conditions: aqueous buffer, pH 2.2, simulated gastric fluid, thermodynamic from solid, 0.01N HCl pH ~2.2; 1 h
As shown below, each of these compounds has a reported solubility at 1 h value.
Measured endpoint: solubility at 1 h (µg/mL)

{"columns": ["Compound", "Measured endpoint", "Output unit", "Recorded value"],
 "data": [
  ["Cc1ccc(S(=O)(=O)O)cc1.FC(F)(F)Oc1ccc(Nc2ccc3cccc(Cl)c3n2)cc1 [tosylate]", "solubility at 1 h", "µg/mL", 10],
  ["FC(F)(F)Oc1ccc(Nc2ccc3cccc(Cl)c3n2)cc1.O=S(=O)(O)c1ccccc1 [besylate]", "solubility at 1 h", "µg/mL", 32],
  ["Cl.FC(F)(F)Oc1ccc(Nc2ccc3cccc(Cl)c3n2)cc1 [HCl]", "solubility at 1 h", "µg/mL", 147]
]}

====

Assay: Hygroscopicity by Dynamic Vapor Sorption Analysis (DVS)
Type: physicochemical
Settings: DVS, 0 to 95% RH
Method: The hygroscopicity was determined by Dynamic Vapor Sorption Analysis (DVS). Approximately 200 mg of each solid state were weight on a sample plate and subjected to the apparatus. The humidity inside was varied in a range from 0 to 95% RH and the mass change (dm [%]) of the samples measured continuously.

{"columns": ["Compound", "Humidity absorption (in words)"],
 "data": [
  ["FC(F)(F)Oc1ccc(Nc2ccc3cccc(Cl)c3n2)cc1.O=S(=O)(O)O [H2SO4]", "low hygroscopicity"],
  ["FC(F)(F)Oc1ccc(Nc2ccc3cccc(Cl)c3n2)cc1.O=S(=O)(O)c1ccccc1 [besylate]", "low hygroscopicity"]
]}

Reference source for all entries: patent US10745357B2
